- Measurement notes: Pharmacokinetics in rats after oral administration
- Type: in vivo, SD rat
- Run parameters: Sprague-Dawley, rat, serum, po, 20 mg/kg, oral 20 mg/kg, 1% methyl-cellulose, SD rat; Mean; read-out: Tmax
Recorded endpoint: Tmax (h)
Give a bare numeral; the unit h is implied.

Given `Cc1cc(OC(C)C)cc(C)c1-c1csc(NC(=O)c2ccncc2)n1` , state its recorded Tmax.
4

###

Reported pIC50 values follow for various compounds
- Test system: Hela
- Measurement notes: Antiproliferative activity (MTS assay), Hela
- Assay type: cell-based
- Run parameters: Homo sapiens, HeLa, 96 h, Hela cells
- Experimental: Antiproliferative effect is expressed as IC50 values in microMolar final concentration. Cells were grown at 37° C. in a humidified atmosphere with 5% CO2 and 95% air. Cells were seeded in 96 well tissue culture plates. Compound treatment started after overnight incubation of cells (TO). […] Cell viability was then determined by MTS assay using CellTiter 96® AQueous non-radioactive cell proliferation assay system (Promega). […]
Reminder that pIC50 is minus the log10 of a molar concentration.

Examples with answers:
[
  {
    "Structure smiles string": "Cc1cc(Sc2ccccc2)cc(C)c1-c1csc(NC(=O)c2ccncc2)n1",
    "Readout number": 6.64
  },
  {
    "Structure smiles string": "CCOc1cc(C)c(-c2csc(NC(=O)c3ccnc(Cl)c3)n2)c(C)c1",
    "Readout number": 6.70
  }
]

Quick one: pIC50 for `COc1ccc(Oc2cc(C)c(-c3csc(NC(=O)c4ccncc4)n3)c(C)c2)cc1` ?
7.30

Give the measured pIC50 of `COc1ccc(S(=O)(=O)c2cc(C)c(-c3csc(NC(=O)c4ccncc4)n3)c(C)c2)cc1` .
6.57

###

- Measurement notes: Pharmacokinetics in rats after oral administration
- Format: in vivo, SD rat
- Run parameters: SD, rat, serum, po, compound 95 oral, formulation and route otherwise identical to compound 82, SD rat; Mean; read-out: MRT
Recorded endpoint: MRT (h)
Please state the figure in h; there is no need to write the unit.

# input molecule: `COc1ccc(Oc2cc(C)c(-c3csc(NC(=O)c4ccncc4)n3)c(C)c2)cc1` ; wanted: its MRT
4.24

###

- Measurement notes: Pharmacokinetics in rats after i.v. injection
- Assay type: in vivo, SD rat
- Run parameters: Sprague-Dawley, rat, serum, iv, 2 mg/kg, compound 95 i.v., formulation and route otherwise identical to compound 82, SD rat; Mean
Recorded endpoint: half-life (h)
Lab book: enter the figure in h, no units written.

So what does the record say about half-life for `COc1ccc(Oc2cc(C)c(-c3csc(NC(=O)c4ccncc4)n3)c(C)c2)cc1` ?
7.36

###

- Measurement notes: Pharmacokinetics in rats after i.v. injection
- Type: in vivo, SD rat
- Run parameters: Sprague-Dawley, rat, serum, iv, 2 mg/kg, compound 95 i.v., SD rat; individual rats No. 1-3; read-out: MRT
Recorded endpoint: MRT (h)
Give the quantity in h, number only.

Would you mind telling me what MRT value was observed for `COc1ccc(Oc2cc(C)c(-c3csc(NC(=O)c4ccncc4)n3)c(C)c2)cc1` ?
131

###

- Measurement notes: Pharmacokinetics in rats after oral administration
- Format: in vivo, SD rat
- Run parameters: SD, rat, serum, po, 20 mg/kg, compound 95 oral, SD rat; individual rats No. 1-3; read-out: MRT
Recorded endpoint: MRT (h)
Reply numerically in h, unit not repeated.

// returns reported MRT for input `COc1ccc(Oc2cc(C)c(-c3csc(NC(=O)c4ccncc4)n3)c(C)c2)cc1`
4.4

###

- Measurement notes: Pharmacokinetics in rats after i.v. injection
- Format: in vivo, SD rat
- Run parameters: Sprague-Dawley, rat, serum, iv, 2 mg/kg, compound 42 i.v., formulation and route otherwise identical to compound 82, SD rat; Mean; read-out: MRT
Recorded endpoint: MRT (h)
Just the number please, in h, no unit attached.

Need MRT, item `COc1cc(C)c(-c2csc(NC(=O)c3ccncc3)n2)c(C)c1`
1.26

###

- Measurement notes: Pharmacokinetics in rats after i.v. injection
- Format: in vivo, SD rat
- Run parameters: Sprague-Dawley, rat, serum, iv, 2 mg/kg, compound 95 i.v., formulation and route otherwise identical to compound 82, SD rat; Mean; read-out: C0
Recorded endpoint: C0 (ng/mL)
# output: bare number, implied unit ng/mL

Looking for the measured C0 of `COc1ccc(Oc2cc(C)c(-c3csc(NC(=O)c4ccncc4)n3)c(C)c2)cc1` , can you help?
3670

###

- Measurement notes: Pharmacokinetics in rats after oral administration
- Assay type: in vivo, SD rat
- Run parameters: Sprague-Dawley, rat, serum, po, 20 mg/kg, oral 20 mg/kg, SD rat; individual rats No. 1-3; read-out: MRT0-inf
Recorded endpoint: MRT inf (h)
// return numeric value only (unit: h, not printed)

# get_value(readout='MRT inf', item= `Cc1cc(OC(C)C)cc(C)c1-c1csc(NC(=O)c2ccncc2)n1` )
7.71

###

- System: Hela
- Measurement notes: Antiproliferative activity (MTS assay), Hela
- Format: cell-based
- Run parameters: Homo sapiens, HeLa, 96 h, Hela cells
pIC50: −log10 of the molar value.
// label = y if pIC50 is not less than 6, otherwise n

[
  {
    "Compound": "COc1cc(OC)c(-c2csc(NC(=O)c3ccncc3)n2)c(OC)c1 [Compound 11]",
    "Class label": "n"
  },
  {
    "Compound": "COc1ccc(-c2nc(NC(=O)c3ccc(C#N)cc3)sc2C)cc1 [Compound 39]",
    "Class label": "n"
  }
]

Please indicate if the recorded pIC50 for COCCOc1cc(C)c(-c2csc(NC(=O)c3ccncc3)n2)c(C)c1 [Compound 109] meets or exceeds 6.
y

Could you verify whether the entry CSc1cc(C)c(-c2csc(NC(=O)c3ccncc3)n2)c(C)c1 [Compound 125] shows pIC50 of no less than 6?
y

Is pIC50 for COc1ccc(-c2csc(NC(=O)c3cccnc3)n2)cc1 [Compound 37] at or above 6?
n

###

- Measurement notes: Pharmacokinetics in rats after oral administration
- Type: in vivo, SD rat
- Run parameters: Sprague-Dawley, rat, serum, po, 20 mg/kg, compound 42 oral, formulation and route otherwise identical to compound 82, SD rat; Mean; read-out: Tmax
- Description: Bioavailability: Selected compounds were administered to rats per os or via injection following well known procedures.
Recorded endpoint: Tmax

Consider the compound COc1cc(C)c(-c2csc(NC(=O)c3ccncc3)n2)c(C)c1 [Compound 42] and give its measured Tmax.
1.33 h

###

Below is a list of entries, each paired with its recorded pIC50 value.
- Tested on: Hela
- Measurement notes: Antiproliferative activity (MTS assay), Hela
- Assay type: cell-based
- Run parameters: Homo sapiens, HeLa, 96 h, Hela cells
pIC50: −log10 of the molar value.

[
  {
    "Compound": "COc1ccc(-c2csc(NC(=O)c3ccnc(Cl)c3)n2)cc1F [Compound 63]",
    "Recorded endpoint": "pIC50",
    "Result": "< 5.00"
  },
  {
    "Compound": "Cc1cc(Oc2ccc3c(c2)OCO3)cc(C)c1-c1csc(NC(=O)c2ccncc2)n1 [Compound 101]",
    "Recorded endpoint": "pIC50",
    "Result": 6.96
  },
  {
    "Compound": "Cc1cc(C)c(-c2csc(NC(=O)c3ccnc(N4CCOCC4)c3)n2)c(C)c1 [Compound 83]",
    "Recorded endpoint": "pIC50",
    "Result": 5.63
  },
  {
    "Compound": "COc1ccc(-c2csc(NC(=O)Cc3ccccc3OC)n2)c(OC)c1 [Compound 40]",
    "Recorded endpoint": "pIC50",
    "Result": "< 5.00"
  },
  {
    "Compound": "Cc1sc(NC(=O)c2ccc(C#N)cc2)nc1-c1ccccc1 [Compound 38]",
    "Recorded endpoint": "pIC50",
    "Result": "< 5.00"
  },
  {
    "Compound": "Cc1cc(C)c(-c2csc(NC(=O)c3ccc4[nH]ncc4c3)n2)c(C)c1 [Compound 105]",
    "Recorded endpoint": "pIC50",
    "Result": "< 5.00"
  },
  {
    "Compound": "Cc1cc(C)c(-c2csc(NC(=O)c3ccncc3)n2)c(C)n1 [Compound 44]",
    "Recorded endpoint": "pIC50",
    "Result": "< 5.00"
  },
  {
    "Compound": "O=C(Nc1nc(-c2ccc(O)cc2)cs1)c1ccncn1 [Compound 58]",
    "Recorded endpoint": "pIC50",
    "Result": "< 5.00"
  }
]

Next, consider the following compound.
Quick check: pIC50 of Cc1cc(Nc2ccc(Br)cc2)cc(C)c1-c1csc(NC(=O)c2ccncc2)n1 [Compound 122] ?
5.67

###

- Measurement notes: Pharmacokinetics in rats after oral administration
- Assay type: in vivo, SD rat
- Run parameters: Sprague-Dawley, rat, serum, po, 20 mg/kg, compound 95 oral, SD rat; individual rats No. 1-3
Recorded endpoint: half-life
State the result as a value with its unit after it.

I am curious: what half-life value has been reported for COc1ccc(Oc2cc(C)c(-c3csc(NC(=O)c4ccncc4)n3)c(C)c2)cc1 [Compound 95] ?
9.96 h

Origin of values: patent US8946268B2
